Source of measurements: patent US20220387487A1

# Tested on: FMC63
# Sequence (as listed by the source): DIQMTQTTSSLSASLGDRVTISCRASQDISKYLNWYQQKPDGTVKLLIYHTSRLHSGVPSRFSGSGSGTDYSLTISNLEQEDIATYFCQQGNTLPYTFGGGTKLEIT
# Sequence (as listed by the source): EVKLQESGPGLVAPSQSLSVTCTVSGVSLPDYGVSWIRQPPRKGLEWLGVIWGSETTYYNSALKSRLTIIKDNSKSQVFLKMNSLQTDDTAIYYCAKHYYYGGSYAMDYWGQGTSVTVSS
# TEST PROTOCOL: CD19 variant binding to anti-CD19 antibody FMC63 (score)
# TEST SETTINGS: Table 1A, CD19 single mutants (positions of SEQ ID NO:2)
MEASURED PARAMETER: FMC63 Binding Score

INSERT INTO assay_data (molecule, result) VALUES
  ('W62E: CD19 variant (protein) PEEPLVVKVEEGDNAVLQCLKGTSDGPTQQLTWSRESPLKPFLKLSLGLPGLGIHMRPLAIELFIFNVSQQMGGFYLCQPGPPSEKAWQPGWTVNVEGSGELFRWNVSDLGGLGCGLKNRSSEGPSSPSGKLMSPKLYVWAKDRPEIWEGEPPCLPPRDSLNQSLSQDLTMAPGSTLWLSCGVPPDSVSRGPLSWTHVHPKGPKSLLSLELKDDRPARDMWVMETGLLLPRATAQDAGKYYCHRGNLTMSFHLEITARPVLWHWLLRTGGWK', '6.4 ± .7');
